The measurements presented in this section are drawn from ChEMBL document CHEMBL1144120.

Test system: Trichophyton mentagrophytes
Assay: Antifungal activity against Trichophyton mentagrophytes ATCC by agar dilution method
Assay type: functional
Readout Name: MIC (µg/mL)
Respond numerically; units are µg/mL and should not be typed.

| Compound | MIC / µg/mL |
| --- | --- |
| CC(Cl)C(=O)c1ccc2c(c1)OCO2 (stereo not given) | 25 |
| CC(Br)C(=O)c1ccc2c(c1)OCO2 (stereo not given) | 20 |

Switching to the query record.
Lookup result for CC(C)C(O)c1cc2ccccc2c2ccccc12 (stereo not given) ; measured MIC: 6.25

---

Tested on: Trichophyton rubrum
Assay: Antifungal activity against Trichophyton rubrum C 113 by agar dilution method
Assay type: functional
Readout Name: MIC

| Molecule | Readout Name | Val |
| --- | --- | --- |
| CC(Br)C(=O)C1CCCCC1 (stereo not drawn) | MIC | > 50 µg/mL |
| CC(Cl)C(=O)c1cc2ccccc2c2ccccc12 (stereo not drawn) | MIC | 1.5 µg/mL |
| C=CCc1cc(OC)c(OC)c(OC)c1 | MIC | > 50 µg/mL |
| COc1cc(C(=O)C(C)Br)cc(OC)c1OC (stereo not drawn) | MIC | > 50 µg/mL |
| CC(C)C(=O)c1cc2ccccc2c2ccccc12 | MIC | 20 µg/mL |
| CCC(=O)c1cc(OC)c(OC)c(OC)c1 | MIC | > 50 µg/mL |

Reported MIC (Trichophyton rubrum) for entry `C[C@@H]1[C@H](O)[C@@H](C)/C=C/C=C/C=C/C=C/C=C/C=C/C=C/[C@H](O[C@@H]2O[C@H](C)[C@@H](O)[C@H](N)[C@@H]2O)C[C@@H]2O[C@](O)(C[C@@H](O)C[C@@H](O)[C@H](O)CC[C@@H](O)C[C@@H](O)CC(=O)O[C@H]1C)C[C@H](O)[C@H]2C(=O)O` is 25 µg/mL

Reported MIC (Trichophyton rubrum) for entry COc1ccc(C(=O)C(C)Br)cc1OC (stereo not drawn) is > 50 µg/mL

---

Tested on: Epidermophyton floccosum
Test: Antifungal activity against Epidermophyton floccosum C 114 by agar dilution method
Format: functional
Measured MIC accompanies every entry in the list below.
Respond numerically; units are µg/mL and should not be typed.

Would you please look over these solved cases?
| Compound | MIC / µg/mL |
| --- | --- |
| CCC(O)c1cc(OC)c(OC)c(OC)c1 (stereo unspecified) | 50 |
| C[C@@H]1[C@H](O)[C@@H](C)/C=C/C=C/C=C/C=C/C=C/C=C/C=C/[C@H](O[C@@H]2O[C@H](C)[C@@H](O)[C@H](N)[C@@H]2O)C[C@@H]2O[C@](O)(C[C@@H](O)C[C@@H](O)[C@H](O)CC[C@@H](O)C[C@@H](O)CC(=O)O[C@H]1C)C[C@H](O)[C@H]2C(=O)O [AMPHOTERICIN B] | 0.3 |
| COc1cc(C(=O)C(C)Br)cc(OC)c1OC (stereo unspecified) | 8 |
| CCC(=O)c1ccc(OC)c(OC)c1 | 50 |
| CC(Cl)C(=O)c1ccc2c(c1)OCO2 (stereo unspecified) | 6.25 |
| CC(C)(C)C(=O)c1ccccc1 | 50 |
| CC(=O)N1CCN(c2ccc(OCC3COC(Cn4ccnc4)(c4ccc(Cl)cc4Cl)O3)cc2)CC1 (stereo unspecified) [KETOCONAZOLE] | 25 |
| COc1ccc(C(=O)C(C)Br)cc1OC (stereo unspecified) | 3 |
| CCC(O)c1ccc2ccccc2c1 (stereo unspecified) | 40 |
| COc1ccc(C(=O)C(C)C)cc1OC | 50 |

Lookup result for COc1cc(C(=O)C(C)Cl)cc(OC)c1OC (stereo unspecified) ; measured MIC: 0.5

Lookup result for `CC(C)C(=O)c1ccc2ccccc2c1` ; measured MIC: 40

Lookup result for CC(C)C(O)c1ccc2ccccc2c1 (stereo unspecified) ; measured MIC: 25

Lookup result for CC(Br)C(=O)c1ccc2c(c1)OCO2 (stereo unspecified) ; measured MIC: 6.25
